biological target: h P2X3 (Homo sapiens); experiment: In vitro electrophysiology assay for P2X3 (automated whole-cell patch clamp, α,β-MeATP agonist); assay type: cell-based; conditions: Table 3; 800 nM α,β-MeATP, peak current; read-out: h P2X3 (pIC50 range of activity) (converted)
Sequence (P56373 whole entry): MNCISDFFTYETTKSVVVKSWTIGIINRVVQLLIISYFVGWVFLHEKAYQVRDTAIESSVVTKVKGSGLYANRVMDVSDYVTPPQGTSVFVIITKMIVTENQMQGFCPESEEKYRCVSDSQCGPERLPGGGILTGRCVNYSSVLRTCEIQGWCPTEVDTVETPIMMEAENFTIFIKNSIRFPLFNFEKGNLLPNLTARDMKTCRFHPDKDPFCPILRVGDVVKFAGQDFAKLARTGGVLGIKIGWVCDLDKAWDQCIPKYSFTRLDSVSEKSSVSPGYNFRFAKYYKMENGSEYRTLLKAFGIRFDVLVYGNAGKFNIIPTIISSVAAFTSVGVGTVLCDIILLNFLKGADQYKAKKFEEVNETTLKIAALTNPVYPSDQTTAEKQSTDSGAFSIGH
Give IC50 for every item shown.

State the recorded IC50 for this entry: Cc1nc([C@@H](C)Nc2ncnc3c(S(=O)(=O)N(C)C)cc(-c4ccc(F)cc4)cc23)no1 (stereo in doubt) [Example 15] < 316 nM

State the recorded IC50 for this entry: Cc1ccc([C@@H](C)Nc2ncnc3c([S+](C)[O-])cc(-c4ccc(F)cc4)cc23)nn1 (some centres unmarked) [Example 27] < 316 nM

State the recorded IC50 for this entry: Cc1ccc(CNc2ncnc3c(OCc4nnc(C5CC5)o4)cc(-c4ccc(F)cc4)cc23)nn1 [Example 62] < 316 nM

State the recorded IC50 for this entry: Cc1nc([C@@H](C)Nc2ncnc3c(S(=O)(=O)N4CCC(F)(F)C4)cc(-c4ccc(F)cc4)cc23)no1 [Example 17] < 316 nM

State the recorded IC50 for this entry: Cc1cnc(-c2cc(OCC(F)F)c3ncnc(NCc4ccc(C)nn4)c3c2)nc1 [Example 9] < 316 nM

State the recorded IC50 for this entry: Cc1ccc(CNc2ncnc3c(OCC(F)F)cc(-c4ccc(F)cc4)cc23)nn1 [Example 1] < 316 nM

State the recorded IC50 for this entry: COC(=O)C1(NC(=O)COc2cc(-c3ccc(F)cc3)cc3c(NCc4ccc(C)nn4)ncnc23)CC1 [Example 42] 316 to 3160 nM

State the recorded IC50 for this entry: COC(=O)N1CCC(Oc2cc(-c3ccc(F)cc3)cc3c(NCc4ccc(C)nn4)ncnc23)CC1 [Example 65] 316 to 3160 nM

Where do the numbers come from? From patent US20240025880A1.
